assayed system: Integrin alpha-V/beta-3 (Homo sapiens, UniProt P05106+P06756)
Sequence (P05106 27-788 limits assumed): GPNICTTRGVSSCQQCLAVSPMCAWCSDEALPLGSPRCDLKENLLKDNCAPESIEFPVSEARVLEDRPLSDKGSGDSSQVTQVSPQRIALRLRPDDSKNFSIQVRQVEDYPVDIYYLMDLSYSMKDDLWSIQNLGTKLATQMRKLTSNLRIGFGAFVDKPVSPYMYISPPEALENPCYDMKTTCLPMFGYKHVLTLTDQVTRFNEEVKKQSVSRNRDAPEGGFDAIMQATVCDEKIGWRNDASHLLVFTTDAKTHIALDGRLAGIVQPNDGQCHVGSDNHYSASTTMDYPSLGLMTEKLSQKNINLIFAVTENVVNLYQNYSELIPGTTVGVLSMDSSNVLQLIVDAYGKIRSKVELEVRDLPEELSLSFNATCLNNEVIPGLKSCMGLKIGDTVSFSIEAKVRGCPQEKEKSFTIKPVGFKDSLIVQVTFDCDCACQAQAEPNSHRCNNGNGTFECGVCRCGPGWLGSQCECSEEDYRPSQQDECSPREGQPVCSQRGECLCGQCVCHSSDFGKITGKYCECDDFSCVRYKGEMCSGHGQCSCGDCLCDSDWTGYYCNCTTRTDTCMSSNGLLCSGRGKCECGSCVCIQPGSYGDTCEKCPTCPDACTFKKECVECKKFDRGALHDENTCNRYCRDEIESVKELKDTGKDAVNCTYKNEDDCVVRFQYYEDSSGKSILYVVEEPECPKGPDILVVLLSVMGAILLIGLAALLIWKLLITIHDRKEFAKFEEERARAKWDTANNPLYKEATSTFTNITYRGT
Sequence (P06756 31-889 limits assumed): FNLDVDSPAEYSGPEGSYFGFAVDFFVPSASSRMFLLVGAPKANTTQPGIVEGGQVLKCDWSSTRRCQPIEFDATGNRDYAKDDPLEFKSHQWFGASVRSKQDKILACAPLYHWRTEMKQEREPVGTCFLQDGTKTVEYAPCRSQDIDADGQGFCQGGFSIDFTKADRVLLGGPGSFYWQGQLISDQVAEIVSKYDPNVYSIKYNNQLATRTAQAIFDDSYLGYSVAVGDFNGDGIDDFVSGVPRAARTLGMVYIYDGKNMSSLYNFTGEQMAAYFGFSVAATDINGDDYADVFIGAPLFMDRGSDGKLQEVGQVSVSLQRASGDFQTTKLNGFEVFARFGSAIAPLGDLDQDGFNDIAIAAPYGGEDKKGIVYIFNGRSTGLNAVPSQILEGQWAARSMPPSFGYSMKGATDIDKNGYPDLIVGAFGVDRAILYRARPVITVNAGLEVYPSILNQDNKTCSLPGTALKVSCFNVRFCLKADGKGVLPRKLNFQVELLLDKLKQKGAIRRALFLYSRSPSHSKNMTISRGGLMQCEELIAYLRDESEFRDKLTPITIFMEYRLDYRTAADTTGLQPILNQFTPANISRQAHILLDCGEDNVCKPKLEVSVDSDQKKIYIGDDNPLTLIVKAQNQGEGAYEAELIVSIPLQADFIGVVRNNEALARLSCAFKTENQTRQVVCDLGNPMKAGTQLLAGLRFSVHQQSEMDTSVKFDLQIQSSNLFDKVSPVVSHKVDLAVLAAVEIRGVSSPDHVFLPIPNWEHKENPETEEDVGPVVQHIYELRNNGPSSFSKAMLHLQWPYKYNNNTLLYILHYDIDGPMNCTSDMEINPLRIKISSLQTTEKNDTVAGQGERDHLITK
Sequence (P06756 891-1048 limits assumed): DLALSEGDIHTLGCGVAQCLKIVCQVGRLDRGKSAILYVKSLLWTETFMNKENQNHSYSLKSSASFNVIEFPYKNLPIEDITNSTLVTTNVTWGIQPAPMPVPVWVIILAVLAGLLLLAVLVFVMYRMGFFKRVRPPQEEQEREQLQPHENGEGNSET
assay details: Inhibition of vitronectin binding to purified immobilized vitronectin receptor alpha v beta3
Assay type: protein-complex assay
recorded metric: IC50

Ask: Form: Entry = CN(CCC(=O)NC(CC(=O)O)c1ccccc1)C(=O)c1cc2cc(C(=N)N)ccc2[nH]1 (stereo unspecified) | System = Integrin alpha-V/beta-3 (Homo sapiens, UniProt P05106+P06756) | IC50 = ____
Result: > 100 µM

* * *

assayed system: Integrin alpha-IIb/beta-3 (Homo sapiens, UniProt P05106+P08514)
Sequence (P05106 27-788 limits assumed): as the sequence (P05106 27-788 limits assumed) above
Sequence (P08514 32-887 limits assumed): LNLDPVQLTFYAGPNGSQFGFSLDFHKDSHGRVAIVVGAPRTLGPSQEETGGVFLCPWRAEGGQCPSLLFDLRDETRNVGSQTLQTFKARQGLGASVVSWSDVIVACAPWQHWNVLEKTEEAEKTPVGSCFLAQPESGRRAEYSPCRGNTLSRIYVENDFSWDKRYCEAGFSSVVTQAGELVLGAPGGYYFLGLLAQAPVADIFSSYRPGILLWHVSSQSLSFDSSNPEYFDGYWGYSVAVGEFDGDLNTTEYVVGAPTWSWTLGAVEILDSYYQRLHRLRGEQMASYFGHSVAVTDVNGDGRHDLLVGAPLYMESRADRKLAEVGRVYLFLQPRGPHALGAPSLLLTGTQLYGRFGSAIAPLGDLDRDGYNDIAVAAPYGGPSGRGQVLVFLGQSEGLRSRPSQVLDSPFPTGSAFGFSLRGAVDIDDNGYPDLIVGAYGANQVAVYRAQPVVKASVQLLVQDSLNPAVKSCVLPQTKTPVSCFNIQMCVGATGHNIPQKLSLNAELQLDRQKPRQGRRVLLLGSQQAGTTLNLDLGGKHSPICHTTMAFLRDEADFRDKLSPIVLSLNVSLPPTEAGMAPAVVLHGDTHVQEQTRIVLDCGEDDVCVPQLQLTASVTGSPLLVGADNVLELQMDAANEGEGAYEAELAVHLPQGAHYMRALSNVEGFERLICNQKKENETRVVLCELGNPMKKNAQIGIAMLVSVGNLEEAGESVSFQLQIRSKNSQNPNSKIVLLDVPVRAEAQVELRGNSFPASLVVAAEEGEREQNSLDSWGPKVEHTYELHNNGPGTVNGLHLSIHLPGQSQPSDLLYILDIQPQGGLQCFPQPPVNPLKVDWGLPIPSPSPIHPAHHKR
Sequence (P08514 891-1039 limits assumed): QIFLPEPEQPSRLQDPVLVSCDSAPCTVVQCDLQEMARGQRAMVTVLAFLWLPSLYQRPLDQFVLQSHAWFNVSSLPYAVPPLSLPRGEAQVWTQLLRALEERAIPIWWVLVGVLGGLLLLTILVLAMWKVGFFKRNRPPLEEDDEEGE
assay details: Inhibitory activity of fibrinogen binding to purified immobilized glycoprotein (fibrinogen receptor).
recorded metric: IC50 (µM)
Respond with the bare value in µM.

# molecule, reported result
data = [
    ("C#CC(CC(=O)O)NC(=O)CCNC(=O)c1cc2cc(C(=N)N)ccc2o1 (stereo not drawn)", 0.04),
    ("N=C(N)c1ccc2oc(C(=O)NCCC(=O)NC(CC(=O)O)C(F)(F)F)cc2c1 (stereo not drawn)", 0.04),
]

Ask: Form: Entry = COc1ccc(C(CC(=O)O)NC(=O)CCNC(=O)c2cc3cc(C(=N)N)ccc3o2)cc1OC (stereo not drawn) | System = Integrin alpha-IIb/beta-3 (Homo sapiens, UniProt P05106+P08514) | IC50 = ____
Result: 0.04

* * *

assayed system: Integrin alpha-IIb/beta-3 (Homo sapiens, UniProt P05106+P08514)
assay details: Inhibitory activity of fibrinogen binding to purified immobilized glycoprotein (fibrinogen receptor).
recorded metric: log10 IC50 (log10 of the value in nM)
All values: log10 IC50 [nM].

# molecule, assayed system, reported result
records = [
    ("N=C(N)c1ccc2oc(C(=O)NCCC(=O)NC(CC(=O)O)c3cc(F)cc(F)c3)cc2c1 (stereo not given)", "Integrin alpha-IIb/beta-3 (Homo sapiens, UniProt P05106+P08514)", 2.00),
    ("N=C(N)c1ccc2oc(C(=O)NCCC(=O)NC(CC(=O)O)c3cc(F)ccc3F)cc2c1 (stereo not given)", "Integrin alpha-IIb/beta-3 (Homo sapiens, UniProt P05106+P08514)", 2.10),
    ("N=C(N)c1ccc2[nH]c(C(=O)NC(CC(=O)NC(CC(=O)O)c3ccccc3)C(F)(F)F)cc2c1 (stereo not given)", "Integrin alpha-IIb/beta-3 (Homo sapiens, UniProt P05106+P08514)", 4.00),
    ("N=C(N)c1ccc2oc(C(=O)N3CCCC(C(=O)NC(CC(=O)O)c4ccccc4)C3)cc2c1 (stereo not given)", "Integrin alpha-IIb/beta-3 (Homo sapiens, UniProt P05106+P08514)", 2.60),
]

Switching to the query record.
Ask: So what does the record say about log10 IC50 for `N=C(N)c1ccc2oc(C(=O)NCCC(=O)NC[C@H](NS(=O)(=O)c3ccc(I)cc3)C(=O)O)cc2c1` ?
Result: 0.30
